Biological target: human type 1 glycine transporter (GlyT1) (Homo sapiens)
Construct: Used in the experiment were T98G cells (glioma cells) developing a human type 1 glycine transporter (GlyT1); endogenous in cells; host or cells: T98G human glioma cells
Experiment: Glycine uptake inhibition experiment ([3H] glycine uptake in T98G cells)
Type: cell-based
Conditions: [3H] glycine 250 nM, read-out: IC50 (glycine uptake inhibiting activity)
parameter.measured: IC50

# IC50 (molecule: `Cn1cnc(C(=O)N(Cc2cccc(-c3ccccc3)c2)C2CCOCC2)n1` ) is < 100 nM

Next:
Form: molecule = `Cc1nc(C(=O)N(Cc2cccc(OC(F)(F)F)c2)C2CCOCC2)cn1C` ; IC50 = ≥ 1000 nM

The molecule listed as `Cn1cnc(C(=O)N(Cc2ccc(F)c(-c3ccccc3)c2)C2CCOCC2)n1` has a reported IC50 of < 100 nM

The recorded IC50 for entry `Cn1cnc(C(=O)N(Cc2ccc(-c3ccccc3)cc2)C2CCOCC2)c1` equals ≥ 1000 nM

Measured IC50, `Cn1cnc(C(=O)N(Cc2ccc(OC(F)(F)F)cc2)C2CCOCC2)n1` : ≥ 1000 nM

---

Listed here: items and their measured IC50.
Target: human type 1 glycine transporter (GlyT1) (Homo sapiens)
Construct: Used in the experiment were T98G cells (glioma cells) developing a human type 1 glycine transporter (GlyT1); endogenous in cells; host or cells: T98G human glioma cells
Test: Glycine uptake inhibition experiment ([3H] glycine uptake in T98G cells)
Type: cell-based
Conditions: [3H] glycine 250 nM, read-out: IC50 (glycine uptake inhibiting activity)
Experimental: A glycine uptake inhibition experiment was conducted in accordance with the method described in Neuron, 8, 927-935, 1992. Used in the experiment were T98G cells (glioma cells) developing a human type 1 glycine transporter (GlyT1). The T98G cells were seeded in a 96-well plate at a density of 2.0×10^4 cells per well and cultured overnight in a CO2 incubator. […] The glycine content in the cells was determined by measuring the radioactivity in the cell lysate with a liquid scintillation counter. […]

Lab note: `Cn1cnc(C(=O)N(Cc2ccc(F)c(-c3ccc(Cl)cc3)c2)C2CCOCC2)n1` gave IC50 of < 100 nM

Next:
Consider `Cc1cc(CN(C(=O)c2cn(C)cn2)C2CCSCC2)cc(OC(F)(F)F)c1` . Its measured IC50 is < 100 nM

---

Each entry below carries its reported pIC50.
Target: human type 1 glycine transporter (GlyT1) (Homo sapiens)
Construct: Used in the experiment were T98G cells (glioma cells) developing a human type 1 glycine transporter (GlyT1); endogenous in cells; host or cells: T98G human glioma cells
Experiment: Glycine uptake inhibition experiment ([3H] glycine uptake in T98G cells)
Assay type: cell-based
Details: [3H] glycine 250 nM, 15 min, room temperature, read-out: IC50 (glycine uptake inhibiting activity)
Recall that pIC50 is obtained by taking minus log10 of the concentration measured in molar.

// known answers, use as guide
Just so you know, measured pIC50 for `Cn1cnc(C(=O)N(Cc2ccc(F)c(-c3ccc(OC(F)(F)F)cc3)c2)C2CCOCC2)n1` came out at 7.65

Lab note: measured pIC50 of `Cc1cc(CN(C(=O)c2cn(C)cn2)C2CCSCC2)cc(OC(F)(F)F)c1` was 7.95

Record `Cn1cnc(C(=O)N(Cc2ccc(F)c(-c3cccc(CCC#N)c3)c2)C2CCOCC2)c1` . Reported pIC50: 7.39

# pIC50 of `Cn1cnc(C(=O)N(Cc2ccc(F)c(-c3ccc(Cl)cc3)c2)C2CCOCC2)n1` = 7.51

Form field pIC50, entry `Cn1cnc(C(=O)N(Cc2ccc(F)c(-c3ccccc3F)c2)C2CCOCC2)n1` : 7.35

Entry `Cn1cnc(C(=O)N(Cc2ccc(Cl)c(OC(F)(F)F)c2)C2CCOCC2)n1` ; pIC50 = 7.53

Value of pIC50 reported for the compound `Cn1cnc(C(=O)N(Cc2ccc(F)c(-c3ccc(C(F)(F)F)cc3)c2)C2CCOCC2)c1` is 7.57

Query `Cn1cnc(C(=O)N(Cc2ccc(F)c(-c3ccc(F)cc3)c2)C2CCOCC2)n1` yields pIC50 of 7.49

---
// pIC50 lookup, compound = `CCn1cnc(C(=O)N(Cc2cccc(OC(F)(F)F)c2)C2CCOCC2)n1` , result: 7.97

Looking up `Cn1cnc(C(=O)N(Cc2ccc(F)c(Br)c2)C2CCOCC2)c1` , I found its pIC50 recorded as 8.42

Quick note, pIC50 for `Cn1cnc(C(=O)N(Cc2ccc(F)c(-c3ccc(F)cc3)c2)C2CCOCC2)c1` landed at 8.09

The values you see were collected from patent US8623898B2.
